# study_target: T1, STXBP5 peptide complexed with HLA-A*02:01 on T2 cells (human)
# T1 construct: whole, on cells
# method: flow cytometry, peptide-loaded T2 cells;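 note: binding of single-chain Fv antibody constructs, raised in XenoMouse, to peptide-pulsed T2 cells measured by flow cytometry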
Quick reference: Signal/background of the listed items.
Would you mind answering with just the numeric figure?

Below, 2 binders whose answers are already recorded.
Query :: Value lookup for Signal/background; key = 18181-F1 (scFv, scFv in bacterial lysate, detected with anti-Flag M2) scFv: EVQLLESGGGLVKPGGSLRLSCAASGFTFSNAWMSWVRQAPGKGLEWVGRIKGNTYGGTTDYAAPVKGRFTISRDDSKNTLFLQMNSLKTEDTAVYYCTTPSYSGSYYNYFSVMDVWGQGTTVTVSSGGGGSGGGGSGGGGSELVMTQSPSSLSASVGDRVTITCRTSQSISSYLNWYQQKPGRAPKLLIFAASSLQGGVPSRFSGSGSGTDFTLTISSLQPEDFATYYCQQTYSSPFTFGPGTKLEIK
Result :: 1

Query :: Return reported Signal/background; argument: 18081-E7 (scFv, scFv in bacterial lysate, detected with anti-Flag M2) scFv: EVQLLESGPGLVKPSETLSLTCTVSGDSISSSRYYWGWIRQPPGKGLEWIGSIYYSGSTYYNPSLKSRVTISVDTSKNQFSLKLSSVTAADTAVYYCARGIFGVITYFDYWGQGTLVTVSSGGGGSGGGGSGGGGSELVMTQTPDSLAVSLGERATINCKSSQSVLYSSNNKNYLAWYQQKPGQPPKLLIYWASTRESGVPDRFSGSGSGTDFTLTISSLQAEDVAVYYCQQYYSTPLTFGGGTKVEIK
Result :: 1.1

Next:
Query :: State the recorded Signal/background for this entry: 18081-H11 (scFv, scFv in bacterial lysate, detected with anti-Flag M2) scFv: EVQLLESGPALVKPTQTLTLTCTFSGFSFTTHKMGVDWIRQPPGKALEWLALIYWNDDKRYSPSLQSRLTITKDTSKNQVVLTMTNMDPVDTATYYCAYRRYNWNYENWFDPWGQGTLVTVSSGGGGSGGGGSGGGGSELQMTQSPSSLSASVGDRVTITCQASQDISNYLNWYQQKPGKAPKLLIYAASSLQSGVPSRFSGSGSGTDFTLTISSLQPEDFATYYCQQSYTTPFTFGPGTKVEIK
Result :: 0.9
